assay: Hydrophobic interaction chromatography; type: physicochemical; details: Butyl Sepharose FF, linear decreasing (NH4)2SO4 650–0 mM, 20 ml; 20 mM potassium phosphate, pH 6.5, 50 mM NaCl; 280 nm; 500 μg protein
Parameter Measured: elution volume after start of the gradient (mL)
Your answer should be a plain number; it is taken to be in mL.

Query block: Data request, read-out elution volume after start of the gradient, for PEX19 CTD farnesylated: human PEX19 CTD (residues 161–299) farnesylated in vitro (protein, farnesyl group on Cys296 (CaaX box); left off: His6, end not stated, cleaved, human PEX19 CTD (residues 161–299) farnesylated in vitro) GMDEGDGEGNILPIMQSIMQNLLSKDVLYPSLKEITEKYPEWLQSHRESLPPEQFEKYQEQHSVMCKICEQFEAETPTDSETTQKARFEMVLDLMQQLQDLGHPPKELAGEMPPGLNFDLDALNLSGPPGASGEQCLIM
Result block: 14.74

Query block: Data request, read-out elution volume after start of the gradient, for I195K farn: farnesylated PEX19 CTD variant I195K (protein, UniProt P40855 161-299, looked up, variant I195K, C-terminal domain farnesylated) GMDEGDGEGNILPIMQSIMQNLLSKDVLYPSLKEKTEKYPEWLQSHRESLPPEQFEKYQEQHSVMCKICEQFEAETPTDSETTQKARFEMVLDLMQQLQDLGHPPKELAGEMPPGLNFDLDALNLSGPPGASGEQCLIM
Result block: 16.41

Query block: Data request, read-out elution volume after start of the gradient, for PEX19 CTD: human PEX19 C-terminal domain (residues 161–299) (protein, left off: His6, end not stated, cleaved) GMDEGDGEGNILPIMQSIMQNLLSKDVLYPSLKEITEKYPEWLQSHRESLPPEQFEKYQEQHSVMCKICEQFEAETPTDSETTQKARFEMVLDLMQQLQDLGHPPKELAGEMPPGLNFDLDALNLSGPPGASGEQCLIM
Result block: 9.66

Query block: Data request, read-out elution volume after start of the gradient, for I195K: PEX19 CTD variant I195K (helix α2) (protein, farnesyl group on Cys296 (CaaX box); left off: His6, end not stated, cleaved) GMDEGDGEGNILPIMQSIMQNLLSKDVLYPSLKEKTEKYPEWLQSHRESLPPEQFEKYQEQHSVMCKICEQFEAETPTDSETTQKARFEMVLDLMQQLQDLGHPPKELAGEMPPGLNFDLDALNLSGPPGASGEQCLIM
Result block: 8.40

Query block: Data request, read-out elution volume after start of the gradient, for M255R farn: farnesylated PEX19 CTD variant M255R (protein, UniProt P40855 161-299, looked up, variant M255R, C-terminal domain farnesylated) GMDEGDGEGNILPIMQSIMQNLLSKDVLYPSLKEITEKYPEWLQSHRESLPPEQFEKYQEQHSVMCKICEQFEAETPTDSETTQKARFEMVLDLRQQLQDLGHPPKELAGEMPPGLNFDLDALNLSGPPGASGEQCLIM
Result block: 17.9
